Numbers sourced from patent US11008317B2.

Consider the following compounds; for each one, report its pIC50.
- SYSTEM: myeloperoxidase (Homo sapiens)
- Sequence (P05164 49-745): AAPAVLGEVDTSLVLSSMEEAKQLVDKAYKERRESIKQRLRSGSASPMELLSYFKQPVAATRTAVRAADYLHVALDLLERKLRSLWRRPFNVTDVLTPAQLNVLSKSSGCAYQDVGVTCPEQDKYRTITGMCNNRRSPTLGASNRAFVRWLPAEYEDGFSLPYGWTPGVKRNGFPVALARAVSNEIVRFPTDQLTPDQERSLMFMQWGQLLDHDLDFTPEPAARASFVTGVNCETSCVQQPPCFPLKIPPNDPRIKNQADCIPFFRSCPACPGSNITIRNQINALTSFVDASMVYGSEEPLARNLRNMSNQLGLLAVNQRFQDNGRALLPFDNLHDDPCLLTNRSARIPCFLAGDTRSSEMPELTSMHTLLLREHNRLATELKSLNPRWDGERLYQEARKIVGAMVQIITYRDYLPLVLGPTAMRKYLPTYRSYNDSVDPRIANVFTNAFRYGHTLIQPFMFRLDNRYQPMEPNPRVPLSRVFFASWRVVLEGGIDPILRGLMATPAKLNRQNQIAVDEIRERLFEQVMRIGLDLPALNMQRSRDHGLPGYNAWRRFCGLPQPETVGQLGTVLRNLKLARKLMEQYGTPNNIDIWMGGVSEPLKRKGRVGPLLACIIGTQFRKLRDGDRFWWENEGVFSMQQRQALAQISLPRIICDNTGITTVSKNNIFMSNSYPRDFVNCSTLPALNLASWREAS
- EXPERIMENT: MPO Peroxidation Assay (Amplex Red Assay)
- Assay type: biochemical
- CONDITION_DESCRIPTION: potency range class, read-out: Amplex Red Assay IC50 value
pIC50: −log10 of the molar value. Structures can show the parent of a compound that is named as a salt.

## Input // query pIC50 value for entry Nc1cc(C(CC(O)CCc2ccccc2)c2ccccc2)c2nn[nH]c2n1 (stereo not shown) [Example 225, TFA]
## Output 6.00 to 7.00

## Input Same again, this time with Nc1cc(C(CCNC2(CO)CCC(c3ccccc3)CC2)c2ccccc2)c2nn[nH]c2n1 (stereo not shown)
## Output 6.00 to 7.00

## Input Request: Nc1cc(C(CCNC2c3ccccc3CC2c2ccccc2)c2ccccc2)c2nn[nH]c2n1 (stereo not shown) [Example 46]
## Output 6.00 to 7.00

## Input Request: CCCC(c1ccccc1)c1cc(N)nc2[nH]nnc12 (stereo not shown)
## Output 7.00 to 9.00

## Input Next record, please: Nc1cc(C(CCN[C@H]2C[C@H](c3ccccc3)Cc3ccccc32)c2ccccc2)c2nn[nH]c2n1 (stereo partly shown)
## Output 5.00 to 6.00

## Input Again, but for Nc1cc(C(CCNC2CC(c3ccccc3)C2)c2ccccc2)c2nn[nH]c2n1 (single isomer, unassigned) [Example 81]
## Output 5.00 to 6.00

## Input // same read-out, input: CC1(C)C[C@H](NCCC(c2ccccc2)c2cc(N)nc3[nH]nnc23)c2ccccc21 (stereo partly shown)
## Output 6.00 to 7.00

----------
- SYSTEM: myeloperoxidase (Homo sapiens, UniProt P05164)
- EXPERIMENT: MPO Chlorination Assay (APF Assay)
- Type: biochemical
- CONDITION_DESCRIPTION: potency range class, read-out: APF Assay IC50 value
pIC50: −log10 of the molar value.
PROPERTY: pIC50

## Input Please state recorded pIC50 (tested on myeloperoxidase (Homo sapiens, UniProt P05164)) of Nc1cc([C@H](CCO)c2ccccc2)c2nn[nH]c2n1 [Example 237]
## Output 6.00 to 7.00

## Input Follow-up entry: Nc1cc(C(CCN[C@@H]2CC[C@@H](c3ccccc3)C[C@@H]2CO)c2ccccc2)c2nn[nH]c2n1 (stereo partly drawn) [Example 180]
## Output 7.00 to 9.00

## Input Try this molecule next: Nc1cc(C(CCN[C@H]2CC[C@H](c3ccccc3)CC2)c2cccc(S(N)(=O)=O)c2)c2nn[nH]c2n1 (stereo partly drawn) [Example 165]
## Output 6.00 to 7.00

## Input And the next one, Cc1cccc(C)c1CNCCC(c1ccccc1)c1cc(N)nc2[nH]nnc12 (stereo not drawn) [Example 27] ?
## Output 6.00 to 7.00

## Input Check Nc1cc(C(CCNC23CC4CC(CC(C4)C2)C3)c2ccccc2)c2nn[nH]c2n1 (stereo not drawn) [Example 21] too.
## Output 6.00 to 7.00

## Input Likewise for Nc1cc([C@H](Cc2nc3cc(F)c(-c4ccccc4)cc3[nH]2)c2ccccc2)c2nn[nH]c2n1 [Example 259] ?
## Output 6.00 to 7.00

## Input Moving on to the next molecule: CC(C)(Cc1ccccc1)NCCC(c1ccccc1)c1cc(N)nc2[nH]nnc12 (stereo not drawn) [Example 119]
## Output 7.00 to 9.00

## Input Here is the next molecule: N#CC1(c2ccccc2)CCN(CCCC(c2ccccc2)c2cc(N)nc3[nH]nnc23)CC1 (stereo not drawn) [Example 211]
## Output 7.00 to 9.00

## Input // repeat for Nc1cc(C(CCNC2CCC(c3ccccc3)(c3ccccc3)CC2)c2ccccc2)c2nn[nH]c2n1 (stereo not drawn) [Example 127] and report
## Output 7.00 to 9.00
